test system: SGK2; details: concentration: 1 μM, replicates: in singlicate; n = 1;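 note: KINOMEscan kinase panel screen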
Below, each entry is listed alongside its reported %Inh.

- MOLECULE: "Cc1c2ccc(N(C)c3ccnc(Nc4cccc(S(N)(=O)=O)c4)n3)cc2nn1Cc1ccccc1.Cl.Cl [GW787226]"
  UNIT_DESCRIPTOR: "%"
  %Inh: 0
- MOLECULE: "Cl.Cl.Cl.Fc1ccc(-c2ncn(C3CCNCC3)c2-c2ccnc(Nc3ccccc3)n2)cc1 [SB-238039]"
  UNIT_DESCRIPTOR: "%"
  %Inh: 2
- MOLECULE: "Cc1ccc(C(=O)NCC(N)=O)cc1-n1c(C)cc(OCc2ccc(F)cc2F)c(Br)c1=O"
  UNIT_DESCRIPTOR: "%"
  %Inh: 0
- MOLECULE: "Cc1c(Cn2c(C)nn3c(=O)cc(N4CCOC(C)C4)nc23)cccc1C(F)(F)F (stereo not shown) [GSK2344444]"
  UNIT_DESCRIPTOR: "%"
  %Inh: 0
- MOLECULE: "COc1cc2c(cc1OCCN1CCN(C)CC1)ncc1c3ccc(C#N)cc3[nH]c21"
  UNIT_DESCRIPTOR: "%"
  %Inh: 43
- MOLECULE: "O=c1cc(N2CCOCC2)nc2n(Cc3cccc(Cl)c3Cl)c(C3CC3)nn12 [GSK2358994]"
  UNIT_DESCRIPTOR: "%"
  %Inh: 20
- MOLECULE: "O=C(NCCNc1ccnc(Nc2ccc(F)cc2)n1)Nc1ccccc1F [GSK1379880]"
  UNIT_DESCRIPTOR: "%"
  %Inh: 0
- MOLECULE: "CC(C)Oc1ccc2c(-c3ccnc(Nc4ccc(N5CCN(C)CC5)cc4)n3)cnn2n1 [GW696155]"
  UNIT_DESCRIPTOR: "%"
  %Inh: 52
- MOLECULE: "Nc1nccc(-c2c(-c3ccc(F)cc3)ncn2C2CCN(CC(F)(F)F)CC2)n1 [SB-236560]"
  UNIT_DESCRIPTOR: "%"
  %Inh: 0
- MOLECULE: "NCC(NC(=O)c1cc(-c2cn[nH]c2)c(-c2ccnc3[nH]ccc23)s1)c1ccccc1.O=C(O)C(F)(F)F.O=C(O)C(F)(F)F (stereo not shown) [GSK1325775]"
  UNIT_DESCRIPTOR: "%"
  %Inh: 79

---

system: NIK; construct: gene MAP3K14; conditions: concentration: 1 μM, replicates: in singlicate; n = 1

- COMPOUND: "Cl.Nc1ncnc2occ(-c3ccc(NC(=O)Nc4cc(C(F)(F)F)ccc4F)cc3)c12"
  %Inh (%): 36
- COMPOUND: "CC(=O)Nc1ccc(COc2ccc(Nc3ccnc4cc(-c5ccccn5)ccc34)cc2)cc1.Cl"
  %Inh (%): 0
- COMPOUND: "O=c1cc(N2CCOCC2)nc2n(Cc3cccc(C(F)(F)F)c3)ccn12"
  %Inh (%): 25
- COMPOUND: "CSc1ccc(-c2cc3ncnc(SCC(=O)O)c3s2)cc1"
  %Inh (%): 0
- COMPOUND: "O=C1Cc2cc(Nc3nc(NCc4cccc(S(=O)(=O)C(F)(F)F)c4)ncc3C(F)(F)F)ccc2N1"
  %Inh (%): 4
- COMPOUND: "COc1cc(Nc2nccc(N3CCC(NC(=O)c4cccc(NC(C)=O)c4)C3)n2)cc(OC)c1OC (centres unmarked)"
  %Inh (%): 23
- COMPOUND: "NS(=O)(=O)c1cccc(-c2ccc3ncc(N4CCOCC4)nc3c2)c1"
  %Inh (%): 0
- COMPOUND: "O=C1NC(=O)C(N2CCc3ccccc32)=C1c1cccc(Cl)c1"
  %Inh (%): 0
- COMPOUND: "Fc1ccc(-c2ncn(CCCN3CCOCC3)c2-c2cccnc2)cc1"
  %Inh (%): 41
- COMPOUND: "Cn1ccc2ncnc(Oc3ccc(NC(=O)Nc4ccncc4)c(Cl)c3)c21"
  %Inh (%): 0
- COMPOUND: "COc1ccc(Nc2ncc(C#N)c(Nc3ccccc3C(N)=O)n2)cc1N1CCN(C)CC1.Cl"
  %Inh (%): 96.6
